molecular target: Pantothenate synthetase (Mycobacterium tuberculosis (strain ATCC 25618 / H37Rv)); assay: Coupled enzyme confirmation of inhibitors against recombinant Mtb PanC (AID 375); conditions: coupled enzyme assay; at 10 µM, hits give high values;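 further: 0% = full reaction with vehicle and 100% = no enzyme background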
quantity_kind: inhibition (%)
Answer format: numeric, % implied, no suffix.

Reference set (5 entries):
compound=O=c1oc2ccccc2c(N2CCCCC2)c1CN1CCCCC1 tested_system="Pantothenate synthetase (Mycobacterium tuberculosis (strain ATCC 25618 / H37Rv))" recorded_measurement=0
compound=COCCNC(=O)Cn1nc(C(F)(F)F)c(Br)c1C tested_system="Pantothenate synthetase (Mycobacterium tuberculosis (strain ATCC 25618 / H37Rv))" recorded_measurement=0
compound=CC(C)[C@@]1(NC(=O)[C@@H]2C[C@@H]3c4cccc5[nH]cc(c45)C[C@H]3N(C)C2)O[C@@]2(O)[C@@H]3CCCN3C(=O)[C@H](Cc3ccccc3)N2C1=O tested_system="Pantothenate synthetase (Mycobacterium tuberculosis (strain ATCC 25618 / H37Rv))" recorded_measurement=4
compound="Cc1c(NC(=O)C(C)Oc2ncnc3ccccc23)c(=O)n(-c2ccccc2)n1C (stereo not drawn)" tested_system="Pantothenate synthetase (Mycobacterium tuberculosis (strain ATCC 25618 / H37Rv))" recorded_measurement=0
compound="CC(C(=O)Oc1ccc2c(c1)OCO2)N1C(=O)c2ccccc2C1=O (stereo not drawn)" tested_system="Pantothenate synthetase (Mycobacterium tuberculosis (strain ATCC 25618 / H37Rv))" recorded_measurement=5

QUERY: Indicate the recorded inhibition value for this compound: C=CCN1C(=O)C2(/C(=C(\O)c3ccc4c(c3)OCCO4)C(=O)C(=O)N2CCCOC)c2ccccc21 (stereo not drawn)
RESULT: 0

QUERY: Indicate the recorded inhibition value for this compound: CCOc1cc(CN2CCN(C(=O)c3ccco3)CC2)ccc1OC
RESULT: 9

QUERY: Indicate the recorded inhibition value for this compound: CC1(C)CC(=O)C=C(Nc2ccc(OCC(F)(F)C(F)F)cc2)C1
RESULT: 5

QUERY: Indicate the recorded inhibition value for this compound: Cc1cc(NC(=O)c2cnn3cccnc23)no1
RESULT: 3

QUERY: Indicate the recorded inhibition value for this compound: CC(=O)Nc1ccc(Oc2cc(C#N)c(C#N)cc2N2CCCCCC2)cc1
RESULT: 0

QUERY: Indicate the recorded inhibition value for this compound: COc1ccc(C(O)C(CN2CCOCC2)c2ccccc2)cc1F (stereo not drawn)
RESULT: 2

QUERY: Indicate the recorded inhibition value for this compound: Cc1nnc(SCCCn2c(N3CCCCC3)nc3c2c(=O)[nH]c(=O)n3C)s1
RESULT: 0

QUERY: Indicate the recorded inhibition value for this compound: O=C(Cn1cnc2c(nnn2Cc2ccc(Cl)cc2)c1=O)NCC1CCCO1 (stereo not drawn)
RESULT: 0

QUERY: Indicate the recorded inhibition value for this compound: O=C(O)CN1C(=O)C2(OCCCO2)c2ccccc21
RESULT: 0

QUERY: Indicate the recorded inhibition value for this compound: Cc1c(C(=O)N2CCCC2)sc(NC(=O)c2cccs2)c1C#N
RESULT: 0

QUERY: Indicate the recorded inhibition value for this compound: N#Cc1ccccc1Cn1cc(C(=O)c2ccco2)c2ccccc21
RESULT: 0

QUERY: Indicate the recorded inhibition value for this compound: CC(OC1=CC(=O)CCC1)C(=O)c1ccccc1 (stereo not drawn)
RESULT: 2

QUERY: Indicate the recorded inhibition value for this compound: CNC(=O)CSc1nc2c(c(=O)n(C)c(=O)n2C)n1Cc1ccc(C)cc1
RESULT: 0

QUERY: Indicate the recorded inhibition value for this compound: O=C1CCCCCN1CSc1nc2ccccc2s1
RESULT: 0

QUERY: Indicate the recorded inhibition value for this compound: CC(C)C(=O)Nc1ccc(C(=O)NCc2cccnc2)cc1
RESULT: 0

QUERY: Indicate the recorded inhibition value for this compound: N#CCCCCn1c(-c2cncs2)nc2ccccc21
RESULT: 0

QUERY: Indicate the recorded inhibition value for this compound: O=C(NCCSc1c[nH]c2ccccc12)c1ccc(Br)o1
RESULT: 1

QUERY: Indicate the recorded inhibition value for this compound: CC(C)(NC(=O)N1CCCC1)c1cccc(C(C)(C)NC(=O)N2CCCC2)c1
RESULT: 0

QUERY: Indicate the recorded inhibition value for this compound: Cc1cc(C)nc(NC(=O)c2c(-c3c(Cl)cccc3Cl)noc2C)n1
RESULT: 2

----------
Recorded viability, one value per entry.
test: viability of PTEN-null HCT116 cells – cell-based, HCT116 clonal line, CellTiter-Glo, pilot screen (AID 824); conditions: HCT116 PTEN-deleted viability, 60 h, at 10 µM, hits give low values;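 further: 0% = 20 µM Hyamine control and 100% = vehicle cell control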
Records with an inconclusive call do not appear.
Answer format: numeric, % implied, no suffix.

Reference set (5 entries):
compound="O/N=C1\\CCC2CN(C3CCCCC3)CC2C1 (stereo unspecified)" recorded_measurement=97.9
compound=CCOC(=O)c1c(N)n(Cc2ccco2)c2nc3ccccc3nc12 recorded_measurement=74
compound=COC(=O)c1ccc(CN2CCN(Cc3ccccc3)CC2)cc1 recorded_measurement=90.8
compound=COc1cc(CC2C(=O)N(C)C(=O)N(C)C2=O)ccc1OCc1ccccc1 recorded_measurement=95.8
compound="Nc1ccc(S(=O)(=O)N2CC3CC(C2)c2cccc(=O)n2C3)cc1 (stereo unspecified)" recorded_measurement=100

Shifting focus to the compound that follows.
QUERY: Indicate the recorded viability value for this compound: O=C(Nc1ccccc1OC(=O)N1CCCCC1)N1CCCCC1
RESULT: 100

----------
target: Receptor tyrosine-protein kinase erbB-2 (Homo sapiens) (UniProt P04626); assay: Her2 expression decrease, cell viability multiplex – SKBR3 breast tumor cells, AlphaScreen, ATP viability, primary screen (AID 461); conditions: 18-24 h, at 10 µM, hits give low values;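 further: lower value means less Her2 protein in the cells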
Sequence (P04626 whole entry, looked up): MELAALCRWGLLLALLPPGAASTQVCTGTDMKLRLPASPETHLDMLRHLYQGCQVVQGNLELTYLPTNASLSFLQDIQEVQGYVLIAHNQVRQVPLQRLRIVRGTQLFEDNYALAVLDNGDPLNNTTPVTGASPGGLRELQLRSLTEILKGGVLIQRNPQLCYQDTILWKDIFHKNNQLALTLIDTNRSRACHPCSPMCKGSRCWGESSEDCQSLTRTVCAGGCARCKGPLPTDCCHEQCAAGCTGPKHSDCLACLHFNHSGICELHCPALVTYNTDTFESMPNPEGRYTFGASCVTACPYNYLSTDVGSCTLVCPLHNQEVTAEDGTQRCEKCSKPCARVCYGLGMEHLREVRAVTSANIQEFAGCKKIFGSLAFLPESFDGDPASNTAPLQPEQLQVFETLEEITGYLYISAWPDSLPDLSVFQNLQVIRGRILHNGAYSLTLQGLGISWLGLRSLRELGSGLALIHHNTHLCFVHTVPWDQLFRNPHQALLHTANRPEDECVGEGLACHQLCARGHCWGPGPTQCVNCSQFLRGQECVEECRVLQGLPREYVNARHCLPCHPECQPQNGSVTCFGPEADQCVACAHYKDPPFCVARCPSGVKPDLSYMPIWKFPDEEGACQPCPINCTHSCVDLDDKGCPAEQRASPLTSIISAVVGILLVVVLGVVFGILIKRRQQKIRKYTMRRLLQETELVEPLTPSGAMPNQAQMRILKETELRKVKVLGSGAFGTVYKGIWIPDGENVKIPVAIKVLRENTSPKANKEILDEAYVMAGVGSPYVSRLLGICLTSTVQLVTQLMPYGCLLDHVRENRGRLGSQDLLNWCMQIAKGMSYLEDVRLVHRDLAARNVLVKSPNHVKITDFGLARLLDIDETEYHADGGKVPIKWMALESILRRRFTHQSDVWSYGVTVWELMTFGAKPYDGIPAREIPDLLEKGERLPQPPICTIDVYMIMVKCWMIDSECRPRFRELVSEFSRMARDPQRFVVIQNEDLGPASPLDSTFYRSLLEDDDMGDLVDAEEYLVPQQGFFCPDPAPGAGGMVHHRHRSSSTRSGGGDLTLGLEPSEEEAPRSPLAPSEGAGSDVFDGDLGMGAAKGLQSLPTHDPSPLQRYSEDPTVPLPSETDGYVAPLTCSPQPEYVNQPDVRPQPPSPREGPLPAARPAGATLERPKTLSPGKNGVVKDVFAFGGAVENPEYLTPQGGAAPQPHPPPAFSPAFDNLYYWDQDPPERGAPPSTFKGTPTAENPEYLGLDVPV
The source made the active and inactive calls.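 How the source made its calls: active means Her2 level under about 52% in both replicate screens, with viability over 70% of control (limit read from the data); inconclusive means Her2 under the limit in one screen only, or viability under 70%; inactive means Her2 level above the set limit.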
Recorded Her2 level, one value per entry.

Reference set (6 entries):
molecule=COc1ccc2[nH]cc(CCN(C)C)c2c1 recorded_measurement="126% (inactive)"
molecule=CC(=NCc1ccc2c(c1)OCO2)c1c(O)n(C)c(=O)n(C)c1=O recorded_measurement="90% (inactive)"
molecule="Cc1ccc(C(=O)C2CN3CCC2CC3)cc1 (configuration not stated)" recorded_measurement="91% (inactive)"
molecule=Cc1[nH]c2c(Cl)cccc2c1CCN recorded_measurement="85.5% (inactive)"
molecule=NC(=O)OCCSc1nnc(-c2cccc(C(N)=S)c2)o1 recorded_measurement="88% (inactive)"
molecule="CCOc1ccc(Br)c(C2(O)CC(C)N(C)CC2C)c1 (configuration not stated)" recorded_measurement="80.5% (inactive)"

QUERY: Indicate the recorded Her2 level value for this molecule: CC(C)OCCCNC(=O)c1c(N)n(CC2CCCO2)c2nc3ccccc3nc12 (configuration not stated)
RESULT: 71.5% (inactive)

QUERY: Indicate the recorded Her2 level value for this molecule: c1ccc(C2NCc3ccccc3-n3cccc32)cc1 (configuration not stated)
RESULT: 93.5% (inactive)

QUERY: Indicate the recorded Her2 level value for this molecule: Cc1cc(N2C(=O)C3CCCN3C2c2cccc(Cl)c2)no1 (configuration not stated)
RESULT: 96.5% (inactive)

QUERY: Indicate the recorded Her2 level value for this molecule: Cc1cnn(C2CCN(C)CC2)c1N
RESULT: 96.5% (inactive)

QUERY: Indicate the recorded Her2 level value for this molecule: O=c1[nH]c(=O)n(CCc2ccc(F)cc2)c(O)c1C=NCCCn1ccnc1
RESULT: 84% (inactive)

QUERY: Indicate the recorded Her2 level value for this molecule: CN1C(=O)N(C)C(=O)C2(Cc3ccccc3N3CCOCC32)C1=O (configuration not stated)
RESULT: 88% (inactive)

QUERY: Indicate the recorded Her2 level value for this molecule: Cc1ccc(-n2c(O)c(C=NCCN3CCOCC3)c(=O)[nH]c2=O)cc1
RESULT: 96.5% (inactive)

QUERY: Indicate the recorded Her2 level value for this molecule: Clc1ccc(CSC(Cn2ccnc2)c2ccc(Cl)cc2Cl)cc1 (configuration not stated)
RESULT: 59% (inactive)

QUERY: Indicate the recorded Her2 level value for this molecule: COc1ccc(CC2C(=O)NC(=O)NC2=O)c(OC)c1
RESULT: 113% (inactive)

QUERY: Indicate the recorded Her2 level value for this molecule: O=C(NC1(C(F)(F)F)Oc2ccc(Cl)cc2O1)N1CCC2(CC1)OCCO2 (configuration not stated)
RESULT: 87.5% (inactive)

QUERY: Indicate the recorded Her2 level value for this molecule: COc1ccccc1-n1c(O)c(C=NCc2ccc3c(c2)OCO3)c(=O)[nH]c1=O
RESULT: 91.5% (inactive)

----------
target: Pantothenate synthetase (Mycobacterium tuberculosis (strain ATCC 25618 / H37Rv)) (UniProt P9WIL5); test: Coupled enzyme confirmation of inhibitors against recombinant Mtb PanC (AID 375); conditions: coupled enzyme assay; at 10 µM, hits give high values;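 further: 0% = full reaction with vehicle and 100% = no enzyme background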
Sequence (P9WIL5 whole entry, looked up): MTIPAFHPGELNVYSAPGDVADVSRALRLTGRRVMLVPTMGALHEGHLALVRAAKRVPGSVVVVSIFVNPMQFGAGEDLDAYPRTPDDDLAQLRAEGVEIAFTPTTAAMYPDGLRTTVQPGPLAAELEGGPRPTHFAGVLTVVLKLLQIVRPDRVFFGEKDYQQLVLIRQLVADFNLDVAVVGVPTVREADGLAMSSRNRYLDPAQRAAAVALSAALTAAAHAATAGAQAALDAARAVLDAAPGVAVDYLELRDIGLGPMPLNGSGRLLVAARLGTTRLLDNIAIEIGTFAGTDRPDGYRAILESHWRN
quantity_kind: inhibition (%)
Answer format: numeric, % implied, no suffix.

Reference set (5 entries):
compound="O=C(Nc1ccncc1)C1CCCN(S(=O)(=O)c2cccc3cccnc23)C1 (configuration not stated)" recorded_measurement=0
compound=COc1ccc(NC(=O)CC2CCCCC2)cc1OC recorded_measurement=4
compound=C=CCN(CC=C)C(=O)c1ccncc1 recorded_measurement=0
compound=Cc1ccc(-c2csc3ncn(-n4c(C)ccc4C)c(=O)c23)o1 recorded_measurement=0
compound=CCOC(=O)c1c(C)[nH]c(C)c1C(=O)COc1ccc(NC(=O)c2ccco2)cc1 recorded_measurement=1

Shifting focus to the compound that follows.
QUERY: Indicate the recorded inhibition value for this compound: CCc1c(C(=O)Nc2cc(C)ccc2OC)[nH]c(C)c1C(C)=O
RESULT: 0

Sourced from PubChem BioAssay
